Test system: HC-1 (Other Blood Carcinomas);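 note: after 72 h of two-drug dosing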
Experiment: Bliss excess, mean over the matrix (fraction); higher = more synergy
Assign class by Bliss excess: not lower than -0.02 means yes (1); lower than -0.02 means no (0).

{"columns": ["MOLECULE", "MEASURED TARGET", "DISCRETE LABEL"],
 "data": [
  ["Cc1c2c(nn1C)CSCc1cc(n(C)n1)CSc1cc(c3ccccc3c1)OCCCc1c(C(=O)O)n(C)c3c-2c(Cl)ccc13 [AZD5991] + Cn1cnc2c(F)c(Nc3ccc(Br)cc3Cl)c(C(=O)NOCCO)cc21 [Selumetinib] (first compound max 1 µM, 7x7, partner max 3 µM)", "HC-1 (Other Blood Carcinomas)", "yes (1)"],
  ["COc1nnc2ccc(N3CCC(c4ccc(OCCN5CCN(C)C(=O)[C@H]5C)cc4)CC3)nn12 [AZD5153] + Cn1cnc2c(F)c(Nc3ccc(Br)cc3Cl)c(C(=O)NOCCO)cc21 [Selumetinib] (first compound max 1 µM, 7x7, partner max 10 µM)", "HC-1 (Other Blood Carcinomas)", "no (0)"],
  ["Cc1c2c(nn1C)CSCc1cc(n(C)n1)CSc1cc(c3ccccc3c1)OCCCc1c(C(=O)O)n(C)c3c-2c(Cl)ccc13 [AZD5991] + C[C@@H]1COCCN1C2=NC(=NC(=C2)C3(CC3)[S@](=N)(=O)C)C4=C5C=CNC5=NC=C4 [AZD6738] (first compound max 1 µM, 7x7, partner max 10 µM)", "HC-1 (Other Blood Carcinomas)", "yes (1)"],
  ["C[C@@H]1COCCN1c1cc(C2([S@](C)(=N)=O)CC2)nc(-c2ccnc3[nH]ccc23)n1 [AZD6738] + O=C(c1cc(Cc2n[nH]c(=O)c3ccccc23)ccc1F)N1CCN(C(=O)C2CC2)CC1 [Olaparib] (first compound max 10 µM, 7x7, partner max 10 µM)", "HC-1 (Other Blood Carcinomas)", "no (0)"],
  ["C=CCn1c(=O)c2cnc(Nc3ccc(N4CCN(C)CC4)cc3)nc2n1-c1cccc(C(C)(C)O)n1 [AZD1775] + C1CN(CCC1(C(=O)N[C@@H](CCO)C2=CC=C(C=C2)Cl)N)C3=NC=NC4=C3C=CN4 [Capivasertib] (first compound max 3 µM, partner max 3 µM)", "HC-1 (Other Blood Carcinomas)", "yes (1)"],
  ["COc1nnc2ccc(N3CCC(c4ccc(OCCN5CCN(C)C(=O)[C@H]5C)cc4)CC3)nn12 [AZD5153] + C=CCn1c(=O)c2cnc(Nc3ccc(N4CCN(C)CC4)cc3)nc2n1-c1cccc(C(C)(C)O)n1 [AZD1775] (first compound max 1 µM, partner max 1 µM)", "HC-1 (Other Blood Carcinomas)", "no (0)"],
  ["CC1(C)CCC(CN2CCN(c3ccc(C(=O)NS(=O)(=O)c4ccc(NCC5CCOCC5)c([N+](=O)[O-])c4)c(Oc4cnc5[nH]ccc5c4)c3)CC2)=C(c2ccc(Cl)cc2)C1 [Venetoclax] + C[C@@H](Nc1cc(F)cc(F)c1)c1cc(C(=O)N(C)C)cc2c(=O)cc(N3CCOCC3)oc12 [AZD8186] (first compound max 1 µM, 7x7, partner max 3 µM)", "HC-1 (Other Blood Carcinomas)", "yes (1)"]
]}

Data provenance: the supplement of paper PMC11061612
